- Tgt: Peroxisome proliferator-activated receptor alpha (Homo sapiens, UniProt Q07869)
- Sequence (Q07869 whole entry): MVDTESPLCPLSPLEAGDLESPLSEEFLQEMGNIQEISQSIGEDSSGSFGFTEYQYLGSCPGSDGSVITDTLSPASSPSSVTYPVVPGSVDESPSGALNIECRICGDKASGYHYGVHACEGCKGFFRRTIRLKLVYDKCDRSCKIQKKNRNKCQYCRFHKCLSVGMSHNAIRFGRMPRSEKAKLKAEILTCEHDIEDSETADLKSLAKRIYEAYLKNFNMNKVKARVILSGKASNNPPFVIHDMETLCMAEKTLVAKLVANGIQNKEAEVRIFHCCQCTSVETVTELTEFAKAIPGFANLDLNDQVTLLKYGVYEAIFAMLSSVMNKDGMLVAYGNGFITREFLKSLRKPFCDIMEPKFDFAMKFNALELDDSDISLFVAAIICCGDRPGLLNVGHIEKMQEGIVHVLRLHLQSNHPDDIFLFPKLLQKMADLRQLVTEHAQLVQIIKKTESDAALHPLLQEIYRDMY
- Protocol summary: Agonist activity at human PPARalpha expressed in COS-1 cells after 1 day by luciferase reporter gene transactivation assay
- Type: functional, cell-based
Metric name: EC50

Below are worked cases with known answers.
Quick one: EC50 for CCCCCS(=O)(=O)NC(=O)CCc1cc(OCCOC)nn1Cc1ccc(Cl)cc1Cl ?
> 10 µM

Next: CC(C)CCS(=O)(=O)NC(=O)CCc1cc(OC(C)C)nn1Cc1ccc(Cl)cc1Cl
> 10 µM

Try this molecule next: CCCCCCS(=O)(=O)NC(=O)CCc1cc(OC(C)C)nn1Cc1ccc(Cl)cc1Cl
> 10 µM

Input CCCCCS(=O)(=O)NC(=O)CCc1cc(OCCCC)nn1Cc1ccc(Cl)cc1Cl
> 10 µM

Next molecule: CCCCCS(=O)(=O)NC(=O)CCc1cc(C(C)C)nn1Cc1ccc(C(F)(F)F)cc1Cl
> 10 µM

Same read-out for CCCCCS(=O)(=O)NC(=O)CCc1cc(-c2ccccc2)nn1Cc1ccc(Cl)cc1Cl ?
> 10 µM

Moving on to the next molecule: CC(C)CCS(=O)(=O)NC(=O)/C=C/c1cc(OC(C)C)nn1Cc1ccc(C(F)(F)F)cc1Cl
> 10 µM

What about this molecule? COCCOc1cc(/C=C/C(=O)NS(=O)(=O)CCC(C)C)n(Cc2ccc(C(F)(F)F)cc2Cl)n1
> 10 µM

Continuing:
// EC50 lookup, key: CCCCCS(=O)(=O)NC(=O)CCc1cc(OCc2ccccc2)nn1Cc1ccc(Cl)cc1Cl
> 10 µM

And CC(C)Oc1cc(CCC(=O)NS(=O)(=O)c2ccccc2)n(Cc2ccc(Cl)cc2Cl)n1 ?
> 10 µM

CCCCCS(=O)(=O)NC(=O)/C=C/c1cc(OC(C)C)nn1Cc1ccc(C(F)(F)F)cc1Cl , same question.
> 10 µM

CC(C)Oc1cc(CCC(=O)NS(=O)(=O)C2CCCCC2)n(Cc2ccc(Cl)cc2Cl)n1 ?
> 10 µM

// same read-out, input: CCCCCS(=O)(=O)NC(=O)CCc1cc(C(C)C)nn1Cc1ccc(Cl)cc1Cl
> 10 µM

Let us now turn to CCCCCS(=O)(=O)NC(=O)CCc1cc(C2CC2)nn1Cc1ccc(C(F)(F)F)cc1Cl
> 10 µM

Also need CCCCCS(=O)(=O)NC(=O)/C=C/c1cc(OC(C)C)nn1Cc1ccc(Cl)cc1Cl , thanks.
> 10 µM

Let us now turn to CCCCCS(=O)(=O)NC(=O)/C=C/c1cc(C2CC2)nn1Cc1ccc(C(F)(F)F)cc1Cl
> 10 µM

CCCCCS(=O)(=O)NC(=O)CCc1cc(OCc2ccccn2)nn1Cc1ccc(Cl)cc1Cl ?
> 10 µM

What do we get for CCCCS(=O)(=O)NC(=O)CCc1cc(OC(C)C)nn1Cc1ccc(Cl)cc1Cl ?
> 10 µM

Same question, CCCCCS(=O)(=O)NC(=O)/C=C/c1cc(C(C)C)nn1Cc1ccc(Cl)cc1Cl this time
> 10 µM

Ok, now CCCCCS(=O)(=O)NC(=O)CCc1cc(OC(C)C)nn1Cc1ccc(C(F)(F)F)cc1Cl
> 10 µM

----------
- Tgt: Peroxisome proliferator-activated receptor gamma (Homo sapiens)
- Sequence (P37231 whole entry): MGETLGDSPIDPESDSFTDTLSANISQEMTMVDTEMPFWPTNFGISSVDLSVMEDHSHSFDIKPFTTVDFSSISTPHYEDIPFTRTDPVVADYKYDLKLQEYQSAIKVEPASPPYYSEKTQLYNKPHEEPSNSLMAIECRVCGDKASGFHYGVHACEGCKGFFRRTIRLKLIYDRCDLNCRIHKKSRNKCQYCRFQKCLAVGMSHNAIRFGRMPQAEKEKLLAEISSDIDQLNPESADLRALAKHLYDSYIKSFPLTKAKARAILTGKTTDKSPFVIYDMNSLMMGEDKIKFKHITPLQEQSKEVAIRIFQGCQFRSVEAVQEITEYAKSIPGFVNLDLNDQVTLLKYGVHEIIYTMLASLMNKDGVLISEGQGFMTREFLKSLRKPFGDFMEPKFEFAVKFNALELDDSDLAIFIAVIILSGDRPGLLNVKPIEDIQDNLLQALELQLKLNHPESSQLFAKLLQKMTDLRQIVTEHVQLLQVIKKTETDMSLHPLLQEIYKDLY
- Protocol summary: Agonist activity at full length human PPARgamma1 transfected in […] cells co expressing RXRalpha and PPRE after 1 day by luciferase reporter gene transactivation assay
- Type: functional, cell-based, CHO-K1
- Details: read-out: EC50
Metric name: pEC50
Recall that pEC50 is obtained by taking minus log10 of the concentration measured in molar.

Guide cases for pEC50, answers given:
If you can, please state the reported pEC50 value of CC(C)CCS(=O)(=O)NC(=O)CCc1cc(OC(C)C)nn1Cc1ccc(Cl)cc1Cl .
7.77

What would you report for CC(C)Oc1cc(CCC(=O)NS(=O)(=O)c2ccccc2)n(Cc2ccc(Cl)cc2Cl)n1 ?
6.96

Same read-out for CCCCCS(=O)(=O)NC(=O)CCc1cc(C2CC2)nn1Cc1ccc(C(F)(F)F)cc1Cl ?
7.89

// query: CC(C)Oc1cc(CCC(=O)NS(=O)(=O)C2CCCCC2)n(Cc2ccc(Cl)cc2Cl)n1
6.82

Could you do the same for CCCCCS(=O)(=O)NC(=O)CCc1cc(-c2ccccc2)nn1Cc1ccc(Cl)cc1Cl , please?
7.96

Switching to the query record.
Consider the molecule shown here: CCCCCS(=O)(=O)NC(=O)CCc1cc(OCc2ccccc2)nn1Cc1ccc(Cl)cc1Cl What is its recorded pEC50?
7.85
